Could you please report measured amyloid nucleation score for the items listed next?
# assay_name: amyloid nucleation score (Sup35N fusion, yeast selection) (log enrichment); library NNK2; higher = more nucleation; inactive = no reads after selection;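 further: zero at mode of non-aggregating sequences after 7 days selection at 30°C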
Just the number, please, no unit attached.

For VKAWYWLKARFVLWTVGARL , write its amyloid nucleation score.
-0.093

For QPGSGFSVAPVQVKHNTVCR , write its amyloid nucleation score.
0.397

For PYWYYVFCS , write its amyloid nucleation score.
-0.689

For NPSCTRKVLVYSY , write its amyloid nucleation score.
0.359

For VSEWFGTKGWRLDYLCLYWL , write its amyloid nucleation score.
-1.03

For FCSGLYHVYAD , write its amyloid nucleation score.
2.28

For REDNPRADTCMAYGV , write its amyloid nucleation score.
1.14

For KALFLCILMLSASAFQEECH , write its amyloid nucleation score.
4.47

For MSGSDNLILYSSV , write its amyloid nucleation score.
-0.212

For LDRGVVSLRLLFARAHNYSK , write its amyloid nucleation score.
2.88

For SMTDRFPSIIYRECILWVTW , write its amyloid nucleation score.
-0.035

For SSFCNISAAGYFHIVMLRVV , write its amyloid nucleation score.
-0.3

For TTTCLMLLRVNFNTALLIRN , write its amyloid nucleation score.
-1.41

For YFCPVPYLAPVLCRLFKVKL , write its amyloid nucleation score.
-0.87

For GRTSDFKLWIGVCLLGSSYV , write its amyloid nucleation score.
1.89

###

# assay_name: amyloid nucleation score (Sup35N fusion, yeast selection) (log enrichment); library NNK2; higher = more nucleation; inactive = no reads after selection
Returns the class for an entry based on its amyloid nucleation score. Class ranges: bottom (below -0.05), middle (-0.05 to below 0.6), top (0.6 or more)

Which class is correct for the following substance? VIPKHESISILFPAVYPPFE
middle

Which class is correct for the following substance? LIPVTGAMGSN
middle

Which class is correct for the following substance? GSAHTCSTS
middle

Which class is correct for the following substance? AMTTRFCGVFLKGWL
middle

Which class is correct for the following substance? SSYSDLIQLNSNWMWCICLL
top

Which class is correct for the following substance? VCSMEGYEAVYSRRRELLWS
middle

Which class is correct for the following substance? IHWGLIIGSCRF
top

Which class is correct for the following substance? NRRLRHIWRNNSLTSKN
bottom

Which class is correct for the following substance? TYCKFVNFYESVKER
top

Which class is correct for the following substance? QPPMRVYSLVMLCDAVSSKD
middle

Which class is correct for the following substance? NVRDYRIFDL
bottom

Which class is correct for the following substance? CCCWRECDNKRSRTLHCEAW
middle

Which class is correct for the following substance? PDAIVSGVEHAKGTSDAALS
bottom

Which class is correct for the following substance? VKGHKRESSWNWRSDGNMWA
bottom

Which class is correct for the following substance? YDSLYWCGSWYLGLSWISLR
bottom

Which class is correct for the following substance? STKITAESGR
middle

Which class is correct for the following substance? CGKCWCEVD
middle

Which class is correct for the following substance? QSWSRQSATGPWTLVCQRRP
top

Which class is correct for the following substance? MVWSSRDS
bottom

Which class is correct for the following substance? VAYLTFLWNQYAVRARKRLP
bottom

Which class is correct for the following substance? ASGLLPDLDVEKEDRCGIYE
top

Which class is correct for the following substance? MCGFFVIIMRC
bottom

Which class is correct for the following substance? SCPIRTL
middle

Which class is correct for the following substance? AYMVDLYYTVWPGIVLLYM
middle

Which class is correct for the following substance? LNTMPRK
middle

Which class is correct for the following substance? SLEPYMFCSILINFYFFISV
top

Which class is correct for the following substance? NCNFSLEGHYCTFIKFHWTV
top

Which class is correct for the following substance? GRLSISDYIY
top

Which class is correct for the following substance? LYWSFYNYWATHVGFWHKKA
bottom

Which class is correct for the following substance? RGDRSWGVRSCSRYDAAIAG
top

Which class is correct for the following substance? SAQWGREMVISARHRVPVEL
top

Which class is correct for the following substance? SLCLGHYFHGTAYNWVVLYI
middle

Which class is correct for the following substance? VNKSSERNESIGRFRTCYRR
middle

Which class is correct for the following substance? TTLRCHLIESKWGYVRRLTW
top

Which class is correct for the following substance? ARFASIWVWTLGDCWRKCSY
bottom

Which class is correct for the following substance? FNDRKYESCDSDDC
bottom

Which class is correct for the following substance? ISRIIVPDSRLAYGEWFEIV
top

Which class is correct for the following substance? SWCFVNGWWLYESAWEVMDS
bottom

Which class is correct for the following substance? IHRGWSWMQSRILDVGSR
middle

Which class is correct for the following substance? RPLASSWAQY
top

Which class is correct for the following substance? VYMCFSPVVNIMTVISFLAR
top

Which class is correct for the following substance? KSINSFYKRIDVVWGMRSQS
bottom

Which class is correct for the following substance? CRRENRCNRWFQ
bottom

Which class is correct for the following substance? QFRAWWFTSVDRTPSDNHTV
top

Which class is correct for the following substance? REVYWLMCTA
top

Which class is correct for the following substance? MEIRTQLFVLVCSKNILGDS
bottom

Which class is correct for the following substance? LRASWLYYFKSKVSFGCKGD
bottom

Which class is correct for the following substance? NYCNDGVGCYS
top

Which class is correct for the following substance? FNRGKVMCVAYNGCSRYLMD
bottom

Which class is correct for the following substance? VDFFCQPGTCVQEVEDLLVL
bottom

Which class is correct for the following substance? WAGRDHFWNIIYLDLSFVGE
top

Which class is correct for the following substance? MNVGTFSLRFLSFDLL
bottom

Which class is correct for the following substance? LGLRDELTVVVCWFRTYLIR
top

Which class is correct for the following substance? LLASRWPRYLNSWRKSHVKV
bottom

Which class is correct for the following substance? RYWLLKFNCVLWEISFCRTM
top

Which class is correct for the following substance? FDVSWMARVELSIM
middle

Which class is correct for the following substance? YLSQWLSEWGVQRYVESYAR
middle

Which class is correct for the following substance? SREYHSCKCQMLYMSQWSKG
bottom

Which class is correct for the following substance? PHCCCRTSHLSPLNQRDKGS
middle

Which class is correct for the following substance? YNIHYMNVLIGALHL
top

Which class is correct for the following substance? SRKPSILNLRLALVSG
middle

Which class is correct for the following substance? CMARPMSVLECHSCWEDALG
middle

Which class is correct for the following substance? NFGADVDRFNRVEGSSDFHG
middle

Which class is correct for the following substance? VTLGVWRPAFFAFWTPRKQY
bottom

Source: the supplement of paper PMC12042874
